# experimental target: vanilloid receptor (Rattus norvegicus)
# Construct: DRG nerve cells from the primary culture of 2 days were equilibrated; endogenous in cells; host or cells: primary cultured dorsal root ganglion neurons of neonatal SD rats
# Sequence (O35433 whole entry): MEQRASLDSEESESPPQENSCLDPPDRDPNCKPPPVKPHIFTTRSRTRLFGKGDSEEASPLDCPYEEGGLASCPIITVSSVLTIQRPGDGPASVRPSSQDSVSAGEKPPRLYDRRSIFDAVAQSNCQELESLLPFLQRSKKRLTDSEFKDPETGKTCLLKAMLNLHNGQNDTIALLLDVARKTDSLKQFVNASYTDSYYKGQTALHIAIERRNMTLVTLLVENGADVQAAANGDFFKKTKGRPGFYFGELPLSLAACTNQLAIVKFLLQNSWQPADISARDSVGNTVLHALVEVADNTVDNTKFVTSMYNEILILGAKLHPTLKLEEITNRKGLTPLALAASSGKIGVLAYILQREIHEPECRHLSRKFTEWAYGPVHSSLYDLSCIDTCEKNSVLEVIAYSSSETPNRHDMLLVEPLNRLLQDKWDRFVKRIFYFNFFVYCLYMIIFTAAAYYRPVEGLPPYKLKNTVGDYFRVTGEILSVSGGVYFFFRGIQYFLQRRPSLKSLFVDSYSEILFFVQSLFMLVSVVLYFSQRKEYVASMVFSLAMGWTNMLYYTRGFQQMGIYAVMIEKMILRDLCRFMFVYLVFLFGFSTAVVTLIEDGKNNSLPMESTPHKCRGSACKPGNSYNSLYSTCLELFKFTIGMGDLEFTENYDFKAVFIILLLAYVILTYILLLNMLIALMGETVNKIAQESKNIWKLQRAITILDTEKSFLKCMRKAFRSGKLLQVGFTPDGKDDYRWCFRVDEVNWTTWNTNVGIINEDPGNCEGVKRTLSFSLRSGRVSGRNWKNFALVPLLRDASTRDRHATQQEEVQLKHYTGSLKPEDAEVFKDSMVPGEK
# protocol summary: 45Ca influx test (calcium uptake) in primary cultured DRG neurons, antagonism of capsaicin
# Format: cell-based
# applied conditions: neonatal SD rat DRG nerve cells; capsaicin 0.5 μM; 45Ca 10 μCi/ml; 10 mins room temperature; read-out: Antagonist Calcium Uptake Test (IC50)
pIC50: −log10 of the molar value.
quantity: pIC50

>  <compound>
C=Cc1cc(CNC(=O)/C=C/c2ccc(C(C)(C)C)cc2NCCC(C)C)cc(F)c1NS(C)(=O)=O [Example 32]

>  <pIC50>
6.31

$$$$
>  <compound>
C=Cc1cc(CNC(=O)CCc2ccc(C(C)(C)C)cc2)cc(F)c1NS(C)(=O)=O [Example 46]

>  <pIC50>
7.60

$$$$
>  <compound>
C=Cc1cc(CNC(=O)/C=C/c2ccc(C(C)(C)C)cc2N2CCOCC2)cc(F)c1NS(C)(=O)=O [Example 22]

>  <pIC50>
6.60

$$$$
>  <compound>
C=Cc1cc(CNC(=O)/C=C/c2ccc(C(C)(C)C)cc2OC2CCOCC2)cc(F)c1NS(C)(=O)=O [Example 40]

>  <pIC50>
6.54

$$$$

[1] C=Cc1cc(CNC(=O)/C(F)=C/c2ccc(C(C)(C)C)cc2)cc(F)c1NS(C)(=O)=O [Example 38]
[2] C=Cc1cc(CNC(=O)Nc2ccc(C(C)(C)C)cc2)cc(F)c1NS(C)(=O)=O [Example 57]
[3] C=Cc1cc(CNC(=O)/C=C/c2ccc(C(C)(C)C)cc2)ccc1NS(C)(=O)=O [Example 17]
[4] C=Cc1cc([C@@H](C)NC(=O)CCc2ccc(C(C)(C)C)cc2)cc(F)c1NS(C)(=O)=O [Example 35]
Input: Rank entries according to their pIC50, from the largest number down. Output spec: labels arranged per the requested ranking.
Output: 4, 3, 1, 2
(4: 7.48, 3: 7.24, 1: 6.57, 2: 6.30)
